system: primary cortical neurons; experiment: Neurite outgrowth assay of primary cortical neurons (image-based HCS) against paclitaxel-induced neurotoxicity; assay type: cell-based, mouse; conditions: Mus musculus, Primary cortical neuron; test compound 1000 nM + paclitaxel 1 μM; mean ± SE; read-out: D: Neurite outgrowth (% of control) of test compound (1000 nM) + paclitaxel (1 μM)
measuredEndpoint: activity at 1 µM (%)

CN(C)c1cc(NNC(=O)c2ccc(Cl)cc2)nc(N(C)C)n1 : 50
CN(C)c1cc(N/N=C/c2ccc(Cl)cc2)nc(N(C)C)n1 : 79
CN(C)c1cc(N/N=C/c2ccc(Cl)cc2Cl)nc(N(C)C)n1 : 57
O=[N+]([O-])c1cc(/C=N/Nc2cc(N3CCCCCC3)nc(N3CCCCCC3)n2)cc2c1OCO2 : 60
COc1ccccc1/C=N/Nc1cc(N2CCCC2)nc(N2CCCC2)n1 : 68
Oc1ccccc1/C=N/Nc1cc(N2CCOCC2)nc(N2CCOCC2)n1 : 67
CCN(CC)c1cc(N/N=C/c2ccc(Cl)cc2)nc(N(CC)CC)n1 : 48
CN(C)c1cc(N/N=C/c2cccs2)nc(N(C)C)n1 : 62
CC(C)(C)c1ccc(C(=O)NNc2cc(N3CCOCC3)nc(N3CCOCC3)n2)cc1 : 65
